Molecular target: T1, recombinant human ZNRF3 extracellular domain (human, UniProt Q9ULT6 56-219)
T1 construct: extracellular domain; also called huZNRF3; human ZNRF3 ECD
T1 sequence (looked up): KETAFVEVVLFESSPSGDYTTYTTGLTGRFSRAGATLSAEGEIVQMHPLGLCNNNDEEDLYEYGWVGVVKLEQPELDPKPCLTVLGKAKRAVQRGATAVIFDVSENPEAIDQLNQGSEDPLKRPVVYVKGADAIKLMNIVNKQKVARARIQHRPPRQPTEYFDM
Experiment: SPR Biacore 8K; antibody captured on Protein A; ZNRF3 ECD analyte; 25 C
Rule: Kd below 0.2 nM gives Yes. Equal to or above 0.2 nM gives No.

Look over these answered cases.
{"Binder": "ZNRF3-128 (antibody, V domains shown, Rat clone; VH/VL only) VH: EVQLVESGGGLVQPGKSLKLSCSASGFTFSSYGMHWIRQAPGKGLDWVAYISTNSATVYADAVKGRFTISRDNAKNTLYLQLNSLKSEDTAIYYCARSGYTTYMPFTYWGQGTLVTVSS VL: DVLMTQTPVSLPVSLGGQVSISCRSSQSLVHSDGNTYLHWYLQKPGQSPQLLIYRVSNRFSGVSDRFSGSGSGTDFTLKISRVEPDDLGIYYCLQTTHFLTWTFGGGTKLELK", "Label": "No"}
{"Binder": "ZNRF3-30 (antibody, V domains shown, Rat clone; VH/VL only) VH: EVQLAESGGGLEQPGRSLKLSCAASGFTFSNYDMAWVRQAPTRGLEWVASILTSGGTTYYRDSVKGRFTVSRDNAKSTLYLQMDSLRSEDTATYYCARHGVGSYDWFADWGQGTLVTVSS VL: DIVLTQSPALAVSLGQRATISCRASQSVTISGYNLMHWYQQKPGQQPKLLIYRASNLAFGIPARFSGSGSGTDFTLTINPVQADDITTYYCQQSRKSRTFGGGTRLELK", "Label": "Yes"}
{"Binder": "ZNRF3-329 (antibody, V domains shown, Rat clone; VH/VL only) VH: EVQLVESGGGLVQPGKSLKLSCSASGFTFSSHGMHWIRQAPGKGLDWVAYISNNSGTIYSAAVRGRFTISRDNSKNTLFLQLNSLKSEDTAIYYCARGYNYPGAYWGQGTLVTVSS VL: DIQVTQSPSSLLASLGERVTITCQTSQSIRNYLNWYQQKPGQVPILLIYYATSLQTDMPSRFSGQYSGRSFTLTITSLEPEDIANYFCLQHYSVPYTFGAGTKLELK", "Label": "No"}

Determine if ZNRF3-247 (antibody, V domains shown, Rat clone; VH/VL only) VH: EVQLVGSGEGLVQPGSSMKLSCVASGFTFSNSGMNWIRQAPKKGLEWIALIYYTNTYYADSVKGRFTISRDNSKNTLYLEMNSLRSEDTAMYYCAKRGLTGSVDYWGQGVMVTVSS VL: DIQMTQSPSFLSASVGDRVTINCKASQNINRYLNWYQQKLGEAPKRLIYDTSNLQTGIPSRFSGSGSGTDFTLTISSLQPEDFATYFCLQHDSFPNTFGTGTKLELK shows Kd strictly lower than 0.2 nM. Yes

Continue with ZNRF3-172 (antibody, V domains shown, Rat clone; VH/VL only) VH: EVQLAESGGGLEQPGRSLKLSCAASGFTFSNYDMAWVRQAPTKGLEWVASIIASGGTTYYRDSVKGRFTVSRDNAKSTLYLQMDSLRSEDTATYYCARHGVGSYDWFADWGQGTLVTVSS VL: DIVLTQSPALAVSLGQRATISCRASQSVTISGFNLMHWYQQKPGQQPKLLIYRASNLAFGIPARFSGSGSGTDFTLTINPVQADDITTYYCQQSRKSRTFGGGTKLELK No
